# TEST_SYSTEM: Histamine H2 receptor (Homo sapiens, UniProt P25021); also: assay procedure not described here
# Sequence (P25021 whole entry): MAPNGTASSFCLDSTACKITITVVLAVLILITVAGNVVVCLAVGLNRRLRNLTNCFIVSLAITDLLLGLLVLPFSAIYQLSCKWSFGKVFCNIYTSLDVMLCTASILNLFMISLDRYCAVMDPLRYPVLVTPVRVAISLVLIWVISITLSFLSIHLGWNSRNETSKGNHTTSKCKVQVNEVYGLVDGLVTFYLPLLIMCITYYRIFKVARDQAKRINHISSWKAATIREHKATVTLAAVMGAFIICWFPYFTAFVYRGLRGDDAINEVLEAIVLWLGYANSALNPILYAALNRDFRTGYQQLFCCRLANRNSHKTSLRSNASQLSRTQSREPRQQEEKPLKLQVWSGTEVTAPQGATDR
# Assay type: functional, cell-based
REPORTED_METRIC: AC50

Input: State its AC50: CO[C@@H]1[C@@H](O[C@@H]2O[C@H](C)[C@@H](O[C@H]3C[C@@](C)(O)[C@@H](OC(=O)CC(C)C)[C@H](C)O3)[C@H](N(C)C)[C@H]2O)[C@@H](CC=O)C[C@@H](C)[C@@H](O)/C=C/C=C/C[C@@H](C)OC(=O)C[C@H]1OC(C)=O
Output: > 10 µM

***
Input: State its AC50: CCCCCNC(=N)N/N=C/c1c[nH]c2ccc(OC)cc12
Output: > 30 µM

Input: State its AC50: COC(=O)C1=C(C)NC(C)=C(C(=O)OC2CCCN(Cc3ccccc3)C2)C1c1cccc([N+](=O)[O-])c1 (stereo unspecified)
Output: > 30 µM

Input: State its AC50: Clc1ccc(CCCOCCCN2CCCCC2)cc1
Output: > 30 µM

Input: State its AC50: CN(C)/N=N/c1[nH]cnc1C(N)=O
Output: > 10 µM

Input: State its AC50: O=C1C(O)=C([C@H]2CC[C@H](c3ccc(Cl)cc3)CC2)C(=O)c2ccccc21
Output: > 30 µM

* * *

# TEST_SYSTEM: Mu-type opioid receptor (Homo sapiens, UniProt P35372); also: assay procedure not described here
# Sequence (P35372 whole entry): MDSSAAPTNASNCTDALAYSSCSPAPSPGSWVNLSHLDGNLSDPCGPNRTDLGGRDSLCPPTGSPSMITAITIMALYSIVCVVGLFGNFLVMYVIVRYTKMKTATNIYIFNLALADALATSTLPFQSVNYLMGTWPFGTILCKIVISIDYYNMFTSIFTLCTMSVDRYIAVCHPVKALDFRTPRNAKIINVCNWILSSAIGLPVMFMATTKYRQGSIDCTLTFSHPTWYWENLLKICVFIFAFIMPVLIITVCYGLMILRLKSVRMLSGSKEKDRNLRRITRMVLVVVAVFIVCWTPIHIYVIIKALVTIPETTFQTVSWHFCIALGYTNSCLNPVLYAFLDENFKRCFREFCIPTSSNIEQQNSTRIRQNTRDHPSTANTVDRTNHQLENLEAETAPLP
REPORTED_METRIC: AC50

Input: State its AC50: CC[C@@H](C(N)=O)N1CCCC1=O
Output: > 30 µM

Input: State its AC50: CCOC(=O)/C=C1\SC(N2CCCCC2)C(=O)N1C (stereo not drawn)
Output: > 30 µM

Input: State its AC50: CC[C@H]1CN2CCc3cc(OC)c(OC)cc3[C@@H]2C[C@@H]1C[C@H]1NCCc2cc(OC)c(OC)cc21
Output: 5.99 µM

Input: State its AC50: CN(C)CCN1C(=O)c2ccccc2N(C)c2ccccc21 [DIBENZEPIN]
Output: 28.8 µM

***
Input: State its AC50: O=C(CCNNC(=O)c1ccncc1)NCc1ccccc1 [NIALAMIDE]
Output: > 30 µM

Input: State its AC50: C[N+]1(CCCCC[N+]2(C)CCCC2)CCCC1
Output: > 30 µM

Input: State its AC50: CC(=O)N[C@@H]1[C@@H](O)[C@H](O)[C@@H](CO)O[C@H]1O
Output: > 30 µM

* * *

The entries below are paired with their reported AC50.
# TEST_SYSTEM: UniProt:P35462
# Sequence (P35462 whole entry): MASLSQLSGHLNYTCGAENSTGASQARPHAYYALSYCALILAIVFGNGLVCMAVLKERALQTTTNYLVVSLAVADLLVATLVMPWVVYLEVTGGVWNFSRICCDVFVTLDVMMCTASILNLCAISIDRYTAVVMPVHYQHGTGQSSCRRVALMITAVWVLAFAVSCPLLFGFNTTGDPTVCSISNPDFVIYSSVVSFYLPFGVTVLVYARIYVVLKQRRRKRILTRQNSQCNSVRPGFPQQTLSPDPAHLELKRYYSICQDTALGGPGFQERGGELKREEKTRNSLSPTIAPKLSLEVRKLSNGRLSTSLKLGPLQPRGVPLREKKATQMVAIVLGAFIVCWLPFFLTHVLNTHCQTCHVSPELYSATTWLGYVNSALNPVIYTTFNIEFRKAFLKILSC

Input: State its AC50: Cc1cn([C@H]2C[C@H](N=[N+]=[N-])[C@@H](CO)O2)c(=O)[nH]c1=O [ZIDOVUDINE]
Output: > 10 µM

Input: State its AC50: COc1ccccc1OCCNCC(O)c1ccc(C)c(S(N)(=O)=O)c1 (stereo not drawn) [AMOSULALOL]
Output: 0.12 µM

Input: State its AC50: CN1C(=O)C(O)N=C(c2ccccc2Cl)c2cc(Cl)ccc21 (stereo not drawn) [LORMETAZEPAM]
Output: > 30 µM

Input: State its AC50: COc1ccc2c3c1O[C@H]1[C@@H](O)C=C[C@H]4[C@@H](C2)N(C)CC[C@@]341 [CODEINE]
Output: > 10 µM

Input: State its AC50: CC[C@@H](C(N)=O)N1CCCC1=O
Output: > 30 µM

Input: State its AC50: COc1cc2c(N)nc(N3CCN(C(=O)OCC(C)(C)O)CC3)nc2c(OC)c1OC [TRIMAZOSIN]
Output: > 30 µM

Input: State its AC50: COc1cc2nc(N3CCN(C(=O)c4ccco4)CC3)nc(N)c2cc1OC [PRAZOSIN]
Output: > 30 µM

* * *

# TEST_SYSTEM: Vasopressin V2 receptor (Homo sapiens, UniProt P30518); also: assay procedure not described here
# Sequence (P30518 whole entry): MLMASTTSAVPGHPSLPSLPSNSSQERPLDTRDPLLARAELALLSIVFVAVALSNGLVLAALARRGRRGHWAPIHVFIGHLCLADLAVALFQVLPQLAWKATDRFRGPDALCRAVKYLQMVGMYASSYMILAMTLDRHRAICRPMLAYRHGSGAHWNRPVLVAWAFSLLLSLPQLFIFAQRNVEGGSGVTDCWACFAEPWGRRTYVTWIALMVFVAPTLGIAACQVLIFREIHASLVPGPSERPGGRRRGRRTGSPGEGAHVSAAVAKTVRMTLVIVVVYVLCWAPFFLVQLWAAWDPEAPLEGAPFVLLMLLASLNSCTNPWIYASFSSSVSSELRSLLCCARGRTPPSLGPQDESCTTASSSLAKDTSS
REPORTED_METRIC: AC50

A selection of reference data follows.
Input: // output AC50; input COC(=O)C1=C(C)NC(C)=C(C(=O)OC2CCCN(Cc3ccccc3)C2)C1c1cccc([N+](=O)[O-])c1 (configuration not stated) ; system Vasopressin V2 receptor (Homo sapiens, UniProt P30518); also: assay procedure not described here
Output: > 30 µM

Input: // output AC50; input CC(C)=CCC/C(C)=C/C=C/C(C)=C/C=C/C(C)=C/C=C/C=C(C)/C=C/C=C(C)/C=C/C=C(\C)CCC=C(C)C ; system Vasopressin V2 receptor (Homo sapiens, UniProt P30518); also: assay procedure not described here
Output: > 30 µM

Input: // output AC50; input CCCc1nc(C(C)(C)O)c(C(=O)OCc2oc(=O)oc2C)n1Cc1ccc(-c2ccccc2-c2nnn[nH]2)cc1 ; system Vasopressin V2 receptor (Homo sapiens, UniProt P30518); also: assay procedure not described here
Output: > 30 µM

Input: // output AC50; input CCCCCNC(=N)N/N=C/c1c[nH]c2ccc(OC)cc12 ; system Vasopressin V2 receptor (Homo sapiens, UniProt P30518); also: assay procedure not described here
Output: 20.3 µM

Input: // output AC50; input CC[C@H]1OC(=O)[C@H](C)[C@@H](O[C@H]2C[C@@](C)(OC)[C@@H](O)[C@H](C)O2)[C@H](C)[C@@H](O[C@@H]2O[C@H](C)C[C@H](N(C)C)[C@H]2O)[C@](C)(O)C[C@@H](C)CN(C)[C@H](C)[C@@H](O)[C@]1(C)O ; system Vasopressin V2 receptor (Homo sapiens, UniProt P30518); also: assay procedure not described here
Output: > 30 µM

***
Input: // output AC50; input COc1cc2nc(N3CCN(C(=O)c4ccco4)CC3)nc(N)c2cc1OC ; system Vasopressin V2 receptor (Homo sapiens, UniProt P30518); also: assay procedure not described here
Output: > 30 µM

Input: // output AC50; input CC(CC(c1ccccc1)c1ccccc1)NC(C)(C)C (configuration not stated) ; system Vasopressin V2 receptor (Homo sapiens, UniProt P30518); also: assay procedure not described here
Output: > 30 µM

Input: // output AC50; input CC(C)(C)C(=O)Oc1ccc(S(=O)(=O)Nc2ccccc2C(=O)NCC(=O)O)cc1 ; system Vasopressin V2 receptor (Homo sapiens, UniProt P30518); also: assay procedure not described here
Output: > 30 µM

Input: // output AC50; input CCC(C(=O)O)c1ccc(N2Cc3ccccc3C2=O)cc1 (configuration not stated) ; system Vasopressin V2 receptor (Homo sapiens, UniProt P30518); also: assay procedure not described here
Output: > 30 µM

Input: // output AC50; input Cc1c(OCC(F)(F)F)ccnc1C[S+]([O-])c1nc2ccccc2[nH]1 (configuration not stated) ; system Vasopressin V2 receptor (Homo sapiens, UniProt P30518); also: assay procedure not described here
Output: > 30 µM

Input: // output AC50; input NC(=O)CN1CC(O)CC1=O (configuration not stated) ; system Vasopressin V2 receptor (Homo sapiens, UniProt P30518); also: assay procedure not described here
Output: > 30 µM

Input: // output AC50; input C[C@H](CSC(=O)c1ccccc1)C(=O)N1C[C@@H](Sc2ccccc2)C[C@H]1C(=O)O ; system Vasopressin V2 receptor (Homo sapiens, UniProt P30518); also: assay procedure not described here
Output: > 10 µM

Input: // output AC50; input CO[C@@H]1[C@@H](O[C@@H]2O[C@H](C)[C@@H](O[C@H]3C[C@@](C)(O)[C@@H](OC(=O)CC(C)C)[C@H](C)O3)[C@H](N(C)C)[C@H]2O)[C@@H](CC=O)C[C@@H](C)[C@@H](O)/C=C/C=C/C[C@@H](C)OC(=O)C[C@H]1OC(C)=O ; system Vasopressin V2 receptor (Homo sapiens, UniProt P30518); also: assay procedure not described here
Output: > 10 µM

Input: // output AC50; input CCCC(=O)O[C@]1(C(=O)CO)CC[C@H]2[C@@H]3CCC4=CC(=O)CC[C@]4(C)[C@H]3[C@@H](O)C[C@@]21C [HYDROCORTISONE BUTYRATE] ; system Vasopressin V2 receptor (Homo sapiens, UniProt P30518); also: assay procedure not described here
Output: > 10 µM

* * *

# TEST_SYSTEM: B2 bradykinin receptor (Homo sapiens); also: assay procedure not described here
# Sequence (P30411 whole entry): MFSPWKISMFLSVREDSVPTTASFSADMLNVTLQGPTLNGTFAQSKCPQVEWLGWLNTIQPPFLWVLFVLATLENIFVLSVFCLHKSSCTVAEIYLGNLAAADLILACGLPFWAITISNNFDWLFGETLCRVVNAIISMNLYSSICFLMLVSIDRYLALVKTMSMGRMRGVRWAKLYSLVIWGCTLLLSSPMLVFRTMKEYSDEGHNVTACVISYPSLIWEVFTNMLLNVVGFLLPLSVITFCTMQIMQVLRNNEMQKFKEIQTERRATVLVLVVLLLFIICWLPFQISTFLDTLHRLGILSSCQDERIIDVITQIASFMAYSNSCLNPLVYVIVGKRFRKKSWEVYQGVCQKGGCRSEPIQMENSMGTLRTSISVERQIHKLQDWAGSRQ
REPORTED_METRIC: AC50

Input: State its AC50: C[C@](N)(Cc1ccc(O)c(O)c1)C(=O)O [METHYLDOPA]
Output: > 10 µM

***
Input: State its AC50: CS(=O)(=O)c1ccc(C2=C(c3ccccc3)C(=O)OC2)cc1 [ROFECOXIB]
Output: > 30 µM

Input: State its AC50: CCCSc1ccc2nc(NC(=O)OC)[nH]c2c1 [ALBENDAZOLE]
Output: > 10 µM

Input: State its AC50: C[C@@H](O)[C@H]1C(=O)N2C(C(=O)O)=C(S[C@@H]3CN[C@H](C(=O)N(C)C)C3)[C@H](C)[C@H]12 [MEROPENEM]
Output: > 10 µM

Input: State its AC50: CC(=O)OCC(=O)[C@@]12N=C(C)O[C@@H]1C[C@H]1[C@@H]3CCC4=CC(=O)C=C[C@]4(C)[C@H]3[C@@H](O)C[C@@]12C [DEFLAZACORT]
Output: > 30 µM

Input: State its AC50: Cc1ccc(-c2cc(C(F)(F)F)nn2-c2ccc(S(N)(=O)=O)cc2)cc1 [CELECOXIB]
Output: > 30 µM

Input: State its AC50: Cc1nnc2n1-c1ccc(Cl)cc1C(c1ccccc1Cl)=NC2 [TRIAZOLAM]
Output: > 30 µM

Input: State its AC50: CCCCc1ncc(/C=C(\Cc2cccs2)C(=O)O)n1Cc1ccc(C(=O)O)cc1 [EPROSARTAN]
Output: > 30 µM

Input: State its AC50: O=C1Nc2ccc(Cl)cc2[C@@](C#CC2CC2)(C(F)(F)F)O1 [EFAVIRENZ]
Output: > 30 µM

Input: State its AC50: CC[C@H]1OC(=O)[C@H](C)[C@@H](O[C@H]2C[C@@](C)(OC)[C@@H](O)[C@H](C)O2)[C@H](C)[C@@H](O[C@@H]2O[C@H](C)C[C@H](N(C)C)[C@H]2O)[C@](C)(O)C[C@@H](C)CN(C)[C@H](C)[C@@H](O)[C@]1(C)O [AZITHROMYCIN]
Output: > 30 µM

Input: State its AC50: O=[N+]([O-])c1cn2c(n1)OC[C@@H](OCc1ccc(OC(F)(F)F)cc1)C2 [PRETOMANID]
Output: > 30 µM

Input: State its AC50: CCCCCCOc1ccccc1C(N)=O [EXALAMIDE]
Output: > 30 µM

Input: State its AC50: O=C(O)C[C@H](O)C[C@H](O)/C=C/c1c(C2CC2)nc2ccccc2c1-c1ccc(F)cc1 [PITAVASTATIN]
Output: > 10 µM

Input: State its AC50: C[C@]1(O)CC[C@H]2[C@@H]3CCC4=CC(=O)CC[C@]4(C)[C@@]3(F)[C@@H](O)C[C@@]21C [FLUOXYMESTERONE]
Output: > 10 µM

Input: State its AC50: CN1C(=O)C(O)N=C(c2ccccc2)c2cc(Cl)ccc21 (stereo unspecified) [TEMAZEPAM]
Output: > 30 µM

Input: State its AC50: CC(CC(c1ccccc1)c1ccccc1)NC(C)(C)C (stereo unspecified) [TERODILINE]
Output: > 30 µM

Input: State its AC50: CCC(C(=O)O)c1ccc(N2Cc3ccccc3C2=O)cc1 (stereo unspecified) [INDOBUFEN]
Output: > 30 µM

Input: State its AC50: CC(C[N+](C)(C)C)OC(N)=O (stereo unspecified) [BETHANECHOL]
Output: > 10 µM

// provenance: ChEMBL document CHEMBL5291721
